# Test system: NCI-H1944;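 note: CTB read-out in 384-well plates, triplicate wells, NPI normalised per plate against 1 µM phenylarsine oxide (0) and 0.1% DMSO (1) controls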
# experimental.protocol: normalised cell viability (NPI; 0 = phenylarsine oxide control, 1 = DMSO control) (fraction of DMSO control); NCI-H1944 is a non-small cell lung cancer line; higher = more viable cells (less compound toxicity)
# protocol.conditions: glucocorticoid arm: vehicle; compound 5 µM; 6 days
Counter-ions that a name gives are not always drawn. Over roughly 1,900 compounds, “normalised cell viability (NPI; 0 = phenylarsine oxide control, 1 = DMSO control)” has its median near 1; the lowest 2% begin near 0.039. The entries come from a sample that favours the lowest values as a whole.
outcome.measure: normalised cell viability
# respond with the number and nothing more

# annotated cases, reported normalised cell viability shown
CN(C)CCCCSC(=N)N
0.988
CN1CC[C@H](c2c(O)cc(O)c3c(=O)cc(-c4ccccc4Cl)oc23)[C@H](O)C1 [Flavopiridol hydrochloride]
0.00802
Cc1cc(Cn2cnc3c2C[C@@H](C(=O)O)N(C(=O)C(c2ccccc2)c2ccccc2)C3)ccc1N
1.02
CO/N=C(\C(=O)N[C@@H]1C(=O)N2C(C(=O)O)=C(CSc3nc(=O)c(O)nn3C)CS[C@H]12)c1csc(N)n1 [Ceftriaxone sodium salt]
0.974
COC(=O)[C@]12CCC(C)(C)C[C@H]1[C@H]1C(=O)C=C3[C@@]4(C)C=C(C#N)C(=O)C(C)(C)[C@@H]4CC[C@@]3(C)[C@]1(C)CC2 [Bardoxolone Methyl]
0.858

Just so you know, measured normalised cell viability for `Cc1nn(-c2ccccc2)c(C)c1C=NN1CCN(Cc2ccccc2)CC1` came out at 0.996

Just so you know, measured normalised cell viability for COc1cc(CC(=O)O)ccc1O [4-Hydroxy-3-methoxyphenylacetic acid] came out at 1.01

Just so you know, measured normalised cell viability for `COc1cc(OC)c(/C=C/S(=O)(=O)Cc2ccc(OC)c(NCC(=O)O)c2)c(OC)c1` came out at 0.0341
